Source of measurements: patent US8063055B2

Test system: SCF-stimulated UT-7 cells
Details: Homo sapiens, UT7, 72 h, read-out: UT7 Proliferation cell assay data
IC50 strictly less than 0.02 µM = 1.0. Otherwise 0.0.

Solved entries:
Molecule	Class name
Cc1ccn(-c2ccc(C(F)(F)F)cc2)c(=O)c1-c1ccc2nc(N)ncc2c1	1.0
COc1cccc(-n2ccc(C)c(-c3ccc4nc(N)ncc4c3)c2=O)c1	0.0
Cc1ccn(-c2cccc(C#N)c2)c(=O)c1-c1ccc2nc(N)ncc2c1	0.0
Cc1ccn(-c2cccc(OC(F)(F)F)c2)c(=O)c1-c1ccc2nc(N)ncc2c1	1.0
Cc1ccn(-c2ccc3c(c2)CCO3)c(=O)c1-c1ccc2nc(N)ncc2c1	1.0

q: Please determine if Cc1ccc(-n2ccc(C)c(-c3ccc4nc(N)ncc4c3)c2=O)cc1Cl is below 0.02 µM in terms of IC50.
a: 1.0

q: Please determine if Cc1ccn(-c2ccc(-c3ncco3)cc2)c(=O)c1-c1ccc2nc(N)ncc2c1 is below 0.02 µM in terms of IC50.
a: 1.0

q: Please determine if Cc1ccn(-c2ccc(-n3cccc3)cc2)c(=O)c1-c1ccc2nc(N)ncc2c1 is below 0.02 µM in terms of IC50.
a: 1.0

q: Please determine if CCC(C)CCn1ccc(C)c(-c2ccc3nc(N)ncc3c2)c1=O (stereo not drawn) is below 0.02 µM in terms of IC50.
a: 1.0
